system: SRY-box transcription factor 17 (SOX17) Protein Expression, Deisenroth Lab, SOX17 (gene 64321); assay: CCTE_Deisenroth_DEVTOX-GLR_Endo_SOX17: CCTE's DevTox GLR-Endo Assay Evaluation of SRY-box transcription factor 17 (SOX17) Protein Expression, Deisenroth Lab (AID 2284413)
Calls of active or inactive are those of the source. Rule for the calls: active = hit-call score of the fitted dose curve at least 0.9, where 1 is the maximum; inactive = score below 0.9.
Outcomes: active, inactive

INSERT INTO assay_data (smiles_notation, class) VALUES
  ('NC(=O)NO', 'inactive'),
  ('CC[C@H](C)C(=O)O[C@H]1C[C@@H](C)C=C2C=C[C@H](C)[C@H](CC[C@@H]3C[C@@H](O)CC(=O)O3)[C@H]21', 'active'),
  ('O=C(O)c1cc(N=Nc2ccc(S(=O)(=O)Nc3ccccn3)cc2)ccc1O', 'inactive'),
  ('Cn1c(=O)c2c(ncn2C)n(C)c1=O', 'inactive'),
  ('C[C@](N)(Cc1ccc(O)c(O)c1)C(=O)O', 'inactive');

###

read-out: growth arrest and DNA damage 45 (GADD45B), GADD45B (gene 4616); assay: LTEA_HepaRG_GADD45B: Life Technologies and Expression Analysis (LTEA) Assay for growth arrest and DNA damage 45 (GADD45B) using HepaRG (AID 2283461); conditions: mRNA level, 48 h; actives raise or lower the signal
The source made the active and inactive calls. The calls were made as follows: active = hit-call score of the fitted dose curve at least 0.9, where 1 is the maximum; inactive = score below 0.9.
Outcomes: TRUE for active, FALSE for inactive

INSERT INTO results (compound, class) VALUES
  ('CC1(C)C(=O)N(Br)C(=O)N1Br', 'FALSE'),
  ('CCCCCCCCCCCCc1ccccc1', 'FALSE'),
  ('Cc1[nH]cnc1C[C@H]1CCc2c(C)c3ccccc3n2C1=O', 'TRUE'),
  ('CC(C)(O)c1coc(S(=O)(=O)NC(=O)Nc2c3c(cc4c2CCC4)CCC3)c1', 'FALSE'),
  ('CCn1nc(Cc2ccccc2)cc1C1CCN(C[C@H]2C[C@H](N(C)[C@@H](C(=O)O)C(C)C)C[C@@H]2c2cccc(F)c2)CC1', 'FALSE'),
  ('CCOC(=O)COc1ccc2c(c1)CC(NCC(O)c1cccc(Cl)c1)CC2 (stereo unspecified)', 'FALSE');

###

target: human Dopamine Receptor D2 (DRD2), DRD2 (gene 1813); assay: NVS_GPCR_hDRD2s: NovaScreen (NVS) G Protein-Coupled Receptor Assay for human Dopamine Receptor D2 (DRD2) (AID 2283266)
Results filed as inconclusive are left out. Active and inactive are the calls of the source. The calls were made as follows: active = hit-call score of the fitted dose curve at least 0.9, where 1 is the maximum; inconclusive = response in the unintended direction; inactive = score below 0.9.
Outcomes: true for active, false for inactive

INSERT INTO measurements (compound, class) VALUES
  ('Cc1[nH]cnc1C[C@H]1CCc2c(C)c3ccccc3n2C1=O', 'true'),
  ('CNS(=O)(=O)c1cc(C(=O)N2CCC(CCN3C4CCC3CC(n3c(C)nc5ccccc53)C4)(c3cccc(F)c3)CC2)c(Cl)cc1F (centres undefined)', 'true'),
  ('CCn1nc(Cc2ccccc2)cc1C1CCN(C[C@H]2C[C@H](N(C)[C@@H](C(=O)O)C(C)C)C[C@@H]2c2cccc(F)c2)CC1', 'false'),
  ('CCc1cc(SCc2sc(-c3ccc(C(F)(F)F)cc3)nc2CN2CCN(c3ccc(OC)cc3)CC2)ccc1OCC(=O)O', 'true');

###

read-out: Apolipoprotein A-V (APOA5) gene, APOA5 (gene 116519); experiment: LTEA_HepaRG_APOA5: Life Technologies and Expression Analysis (LTEA) Assay for Apolipoprotein A-V (APOA5) gene using HepaRG (AID 2283474); details: mRNA level, 48 h; actives raise or lower the signal
The source made the active and inactive calls. Rule for the calls: active = hit-call score of the fitted dose curve at least 0.9, where 1 is the maximum; inactive = score below 0.9.
Outcomes: active, inactive

INSERT INTO measurements (compound, class) VALUES
  ('Oc1ccc2c(c1)-c1ccccc1C2', 'inactive'),
  ('NC(=O)NO', 'inactive'),
  ('CC(C)(O)c1coc(S(=O)(=O)NC(=O)Nc2c3c(cc4c2CCC4)CCC3)c1', 'inactive'),
  ('CC(C)=CCC/C(C)=C/CO', 'inactive'),
  ('Cc1ccc(C)c(O)c1', 'inactive'),
  ('C1=CCCC=CCCC=CCC1', 'inactive'),
  ('O=P(OC(CCl)CCl)(OC(CCl)CCl)OC(CCl)CCl', 'active'),
  ('COc1ccc(/C=C/S(=O)(=O)NC(=O)c2ccc(C)cc2Cl)cc1', 'inactive'),
  ('CC[C@H]1OC(=O)[C@H](C)[C@@H](O[C@H]2C[C@@](C)(OC)[C@@H](O)[C@H](C)O2)[C@H](C)[C@@H](O[C@@H]2O[C@H](C)C[C@H](N(C)C)[C@H]2O)[C@](C)(O)C[C@@H](C)C(=O)[C@H](C)[C@@H](O)[C@]1(C)O', 'inactive'),
  ('CC(=O)c1ccc2c(c1)[C@H](NC(=O)c1ccc(F)cc1)[C@@H](O)C(C)(C)O2', 'inactive'),
  ('Nc1nc2ncc(CNc3ccc(C(=O)N[C@@H](CCC(=O)O)C(=O)O)cc3)nc2c(=O)[nH]1', 'inactive'),
  ('CCOC(=O)CC(CC(=O)OCC)(OC(C)=O)C(=O)OCC', 'inactive'),
  ('CC(C)c1cccc(C(C)C)c1N1C(=O)c2ccc(O)cc2C1=O', 'inactive'),
  ('CC[C@H](C)C(=O)O[C@H]1C[C@@H](C)C=C2C=C[C@H](C)[C@H](CC[C@@H]3C[C@@H](O)CC(=O)O3)[C@H]21', 'active'),
  ('CCN(C(=O)c1cc(C)cc(OC[C@H](C)Nc2ccncc2)c1)C(C)C', 'active'),
  ('O=c1n(CC2CO2)c(=O)n(CC2CO2)c(=O)n1CC1CO1 (stereo not drawn)', 'inactive'),
  ('Cc1[nH]cnc1C[C@H]1CCc2c(C)c3ccccc3n2C1=O', 'active'),
  ('CCOCCO', 'inactive'),
  ('CC(C)=CCC/C(C)=C\CO', 'inactive'),
  ('O=C(NS(=O)(=O)/C=C/c1ccccc1)c1ccc(F)cc1Cl', 'inactive'),
  ('Cc1c(-c2cccnc2)c2ccccc2n1CCCCC(=O)O', 'inactive'),
  ('On1ccccc1=S', 'inactive'),
  ('COCCOCCOCCOC', 'inactive');

###

target: Tyrosine-protein phosphatase non-receptor type 12 (Homo sapiens); test: NVS_ENZ_hPTPN12: NovaScreen (NVS) Enzymatic Assay for human Protein Tyrosine Phosphatase Non-receptor Type 12 (PTPN12) (AID 2283204)
Inconclusive results are not listed. Active and inactive are the calls of the source. The calls were made as follows: active = hit-call score of the fitted dose curve at least 0.9, where 1 is the maximum; inconclusive = response in the unintended direction; inactive = score below 0.9.
Outcomes: 1 (active), -1 (inactive)

INSERT INTO measurements (smiles_notation, measured_on, class) VALUES
  ('CN(C)c1ccc(N=NS(=O)(=O)O)cc1', 'Tyrosine-protein phosphatase non-receptor type 12 (Homo sapiens)', 1),
  ('CC(C)c1cccc(C(C)C)c1N1C(=O)c2ccc(O)cc2C1=O', 'Tyrosine-protein phosphatase non-receptor type 12 (Homo sapiens)', -1),
  ('Cc1ccc(N)cc1O', 'Tyrosine-protein phosphatase non-receptor type 12 (Homo sapiens)', -1),
  ('CCC(C)(C)C(=O)O[C@H]1C[C@@H](C)C=C2C=C[C@H](C)[C@H](CC[C@@H]3C[C@@H](O)CC(=O)O3)[C@H]21', 'Tyrosine-protein phosphatase non-receptor type 12 (Homo sapiens)', 1),
  ('Cc1[nH]cnc1C[C@H]1CCc2c(C)c3ccccc3n2C1=O', 'Tyrosine-protein phosphatase non-receptor type 12 (Homo sapiens)', -1),
  ('O=C(O)c1cccc(Oc2ccccc2)c1', 'Tyrosine-protein phosphatase non-receptor type 12 (Homo sapiens)', -1);

###

read-out: ABC Transporter (ABCC2), ABCC2 (gene 1244); test: LTEA_HepaRG_ABCC2: Life Technologies and Expression Analysis (LTEA) Assay for ABC Transporter (ABCC2) using HepaRG (AID 2283464); details: mRNA level, 48 h; actives raise or lower the signal
Calls of active or inactive are those of the source. The calls were made as follows: active = hit-call score of the fitted dose curve at least 0.9, where 1 is the maximum; inactive = score below 0.9.
Outcomes: T (active), F (inactive)

INSERT INTO measurements (compound, class) VALUES
  ('On1ccccc1=S', 'F'),
  ('Cn1c(=O)cc(Oc2ccc(F)cc2F)c2cnc(NCC(C)(C)O)nc21', 'F'),
  ('CC[C@H]1CC[C@H](NCc2cc3c(cc2OC)[C@H]2C[C@H]2C(=O)N3C)[C@H](c2ccccc2)N1', 'T'),
  ('CC1=CC(=O)CC(C)(C)C1', 'F'),
  ('O=C(O)c1cccc(Oc2ccccc2)c1', 'F'),
  ('CCCCC(CC)COC(=O)c1ccc(C(=O)OCC(CC)CCCC)cc1 (stereo unspecified)', 'F'),
  ('CCCCC(CC)COC(=O)CCCCCCCCC(=O)OCC(CC)CCCC (stereo unspecified)', 'F'),
  ('CC1(C)C(=O)N(Br)C(=O)N1Br', 'F'),
  ('CC[C@H](C)C(=O)O[C@H]1C[C@@H](C)C=C2C=C[C@H](C)[C@H](CC[C@@H]3C[C@@H](O)CC(=O)O3)[C@H]21', 'F'),
  ('C=CC(=C)CCC=C(C)C', 'F'),
  ('COC(=O)CC(=O)OC', 'F'),
  ('CC(C)=CCC/C(C)=C/CO', 'F'),
  ('CCOc1cccc(-n2cc(C(=O)N3CCN(c4cc(C(=O)O)c5ccccc5c4)CC3)nc2-c2ccc(C)cc2)c1', 'T'),
  ('O=C(O)CCN(C1(C(=O)NO)CCCC1)S(=O)(=O)c1ccc(Oc2ccc(F)cc2)cc1', 'F'),
  ('CC(C)(O)c1coc(S(=O)(=O)NC(=O)Nc2c3c(cc4c2CCC4)CCC3)c1', 'F'),
  ('O=C(NS(=O)(=O)/C=C/c1ccccc1)c1ccc(F)cc1Cl', 'T'),
  ('Cn1cnc([N+](=O)[O-])c1Sc1ncnc2nc[nH]c12', 'F'),
  ('Cc1ccc(C)c(O)c1', 'F'),
  ('O=c1[nH]c2ccc(S(=O)CCN3CCC(Cc4ccc(F)cc4)CC3)cc2o1 (stereo unspecified)', 'T'),
  ('COC(=O)c1ccccc1O', 'F'),
  ('CCOC(=O)COc1ccc2c(c1)CC(NCC(O)c1cccc(Cl)c1)CC2 (stereo unspecified)', 'F'),
  ('CCOC(=O)CC(CC(=O)OCC)(OC(C)=O)C(=O)OCC', 'F'),
  ('Cc1ccc(S(=O)(=O)O)cc1C', 'F'),
  ('Cn1c(=O)c2c(ncn2C)n(C)c1=O', 'F'),
  ('CCCCCCCCCCCCc1ccccc1', 'F'),
  ('COc1ccc2sc(C(=O)Nc3nnn[nH]3)c(OC(C)C)c2c1', 'T');
